Attribution: patent US20210230570

Experimental target: antithrombin III (plasma purified human AT-III), in complex with unfractionated heparin
Please provide measured K0.5 for the entries that follow.

**Query** Data request, read-out K0.5, for FIXa-Y155F/R318Y/R338E/E410N (protein) chain 1: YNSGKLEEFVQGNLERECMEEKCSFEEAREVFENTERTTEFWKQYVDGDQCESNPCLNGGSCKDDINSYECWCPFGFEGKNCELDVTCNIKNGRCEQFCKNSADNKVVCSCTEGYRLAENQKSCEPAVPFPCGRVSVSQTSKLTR chain 2: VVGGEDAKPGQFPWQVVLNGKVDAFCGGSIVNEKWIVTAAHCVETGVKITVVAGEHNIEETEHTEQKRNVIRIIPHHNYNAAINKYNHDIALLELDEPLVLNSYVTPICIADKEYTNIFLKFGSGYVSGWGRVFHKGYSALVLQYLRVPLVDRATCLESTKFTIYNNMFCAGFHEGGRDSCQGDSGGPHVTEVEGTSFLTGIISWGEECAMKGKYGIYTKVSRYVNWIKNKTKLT
**Result** 1100 nM

**Query** Data request, read-out K0.5, for FIXa-R318Y/R338E/E410N (protein) chain 1: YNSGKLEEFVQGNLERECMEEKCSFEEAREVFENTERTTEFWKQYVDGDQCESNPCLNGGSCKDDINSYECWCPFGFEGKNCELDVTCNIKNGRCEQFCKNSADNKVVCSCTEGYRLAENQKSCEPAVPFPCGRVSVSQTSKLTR chain 2: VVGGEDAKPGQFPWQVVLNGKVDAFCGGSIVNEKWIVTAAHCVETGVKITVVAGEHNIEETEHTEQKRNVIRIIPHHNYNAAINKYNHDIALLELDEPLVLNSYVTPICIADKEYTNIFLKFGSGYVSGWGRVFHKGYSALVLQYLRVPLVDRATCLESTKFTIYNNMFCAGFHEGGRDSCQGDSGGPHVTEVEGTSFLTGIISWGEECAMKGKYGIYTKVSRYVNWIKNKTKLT
**Result** 3460 nM

**Query** Data request, read-out K0.5, for FIXa-D203N/F205T/E410N (protein) chain 1: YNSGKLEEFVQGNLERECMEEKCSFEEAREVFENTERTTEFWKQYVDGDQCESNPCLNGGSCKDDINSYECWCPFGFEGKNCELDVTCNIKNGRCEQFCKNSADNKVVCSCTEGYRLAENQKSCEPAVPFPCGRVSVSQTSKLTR chain 2: VVGGEDAKPGQFPWQVVLNGKVNATCGGSIVNEKWIVTAAHCVETGVKITVVAGEHNIEETEHTEQKRNVIRIIPHHNYNAAINKYNHDIALLELDEPLVLNSYVTPICIADKEYTNIFLKFGSGYVSGWGRVFHKGRSALVLQYLRVPLVDRATCLRSTKFTIYNNMFCAGFHEGGRDSCQGDSGGPHVTEVEGTSFLTGIISWGEECAMKGKYGIYTKVSRYVNWIKNKTKLT
**Result** 377 nM

**Query** Data request, read-out K0.5, for FIXa-R318Y/R338E/R403E/E410N (protein) chain 1: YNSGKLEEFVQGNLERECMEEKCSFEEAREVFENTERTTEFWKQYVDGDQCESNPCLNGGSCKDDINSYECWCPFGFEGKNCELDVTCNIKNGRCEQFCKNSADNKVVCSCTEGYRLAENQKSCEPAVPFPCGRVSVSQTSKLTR chain 2: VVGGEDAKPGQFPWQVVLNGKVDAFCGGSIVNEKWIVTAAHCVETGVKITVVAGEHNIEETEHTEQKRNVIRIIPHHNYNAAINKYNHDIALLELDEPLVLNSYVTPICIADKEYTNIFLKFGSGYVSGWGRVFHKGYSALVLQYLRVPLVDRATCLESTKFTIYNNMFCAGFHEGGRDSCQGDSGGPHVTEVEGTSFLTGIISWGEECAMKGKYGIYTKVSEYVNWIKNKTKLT
**Result** 5880 nM

**Query** Data request, read-out K0.5, for FIXa-K228N/R318Y/E410N (protein) chain 1: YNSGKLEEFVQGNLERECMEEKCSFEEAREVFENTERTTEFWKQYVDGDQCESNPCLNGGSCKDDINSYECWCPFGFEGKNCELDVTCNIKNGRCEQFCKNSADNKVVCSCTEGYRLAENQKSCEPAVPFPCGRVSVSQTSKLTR chain 2: VVGGEDAKPGQFPWQVVLNGKVDAFCGGSIVNEKWIVTAAHCVETGVNITVVAGEHNIEETEHTEQKRNVIRIIPHHNYNAAINKYNHDIALLELDEPLVLNSYVTPICIADKEYTNIFLKFGSGYVSGWGRVFHKGYSALVLQYLRVPLVDRATCLRSTKFTIYNNMFCAGFHEGGRDSCQGDSGGPHVTEVEGTSFLTGIISWGEECAMKGKYGIYTKVSRYVNWIKNKTKLT
**Result** 475 nM

**Query** Data request, read-out K0.5, for FIXa-K293A/R338A/R403A (protein) chain 1: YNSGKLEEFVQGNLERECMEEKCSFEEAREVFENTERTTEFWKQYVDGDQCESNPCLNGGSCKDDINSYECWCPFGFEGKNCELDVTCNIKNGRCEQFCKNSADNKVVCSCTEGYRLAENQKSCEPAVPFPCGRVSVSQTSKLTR chain 2: VVGGEDAKPGQFPWQVVLNGKVDAFCGGSIVNEKWIVTAAHCVETGVKITVVAGEHNIEETEHTEQKRNVIRIIPHHNYNAAINKYNHDIALLELDEPLVLNSYVTPICIADAEYTNIFLKFGSGYVSGWGRVFHKGRSALVLQYLRVPLVDRATCLASTKFTIYNNMFCAGFHEGGRDSCQGDSGGPHVTEVEGTSFLTGIISWGEECAMKGKYGIYTKVSAYVNWIKEKTKLT
**Result** > 999 nM

**Query** Data request, read-out K0.5, for FIXa-K228N/R338E/R403E (protein) chain 1: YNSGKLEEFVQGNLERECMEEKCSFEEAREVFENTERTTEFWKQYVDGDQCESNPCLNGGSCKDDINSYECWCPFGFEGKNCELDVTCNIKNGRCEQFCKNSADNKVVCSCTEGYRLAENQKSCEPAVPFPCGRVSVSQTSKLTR chain 2: VVGGEDAKPGQFPWQVVLNGKVDAFCGGSIVNEKWIVTAAHCVETGVNITVVAGEHNIEETEHTEQKRNVIRIIPHHNYNAAINKYNHDIALLELDEPLVLNSYVTPICIADKEYTNIFLKFGSGYVSGWGRVFHKGRSALVLQYLRVPLVDRATCLESTKFTIYNNMFCAGFHEGGRDSCQGDSGGPHVTEVEGTSFLTGIISWGEECAMKGKYGIYTKVSEYVNWIKEKTKLT
**Result** 1680 nM
